System: K4 kissing-loop RNA reporter;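 also: bound reporter read as fluorescence of individual clusters on recovered sequencing chips by microscopy, with normalized cluster intensities fitted with a binding model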
Experiment: apparent KD of K4 kissing-loop reporter; higher = weaker reporter binding
Settings: Eterna round: R107; input ligand: none
recorded metric: apparent KD of K4 kissing-loop reporter (µM)
Give bare numbers, in µM.

Completed entries (count: 3):
UAUCAGAUUACUGAUACCAGUCUAAAGACAGUGAUGUUGUCUGAUCGACCACGAUCAAAGGACCCUUGGCAGCAGUAUACUAUUC [Theo B SS t5] :: 0.157
CCUAUCUCAUACGAUACCAGUGAUUAACCAGUGAUGUUGGAAUAACCAAGGAAUAUUUAUCACCCUUGGCAGCGUAUGGGAUAGG [Ex Theophylline B K4 28] :: 0.0833
GGGCGGCAGACGGCCGCCACUCAUAGCAGCCAGUGAGUGAUGUUCGUGGCGGAGUGAUGUUCCUAGAGGACCGGGUUUGUUGUUC [Same State Tryptophan B GF 19] :: 0.464

Each sequence below has a recorded value; state its apparent KD of K4 kissing-loop reporter.
1. GCAGUGAUGUUGCGCAGGUACAGUGGAGUGCGAGGACCGGUACGGCCGCCACUCGUACAGAACUAGCUAAUAUAUGGAUAGGUGA [VIII]
2. AGGGACUCUUCGGAGUCCCGGUUAAGGGAUACCAGUGAUGUUGGUCACCCUUGGCAGCCCAGAAACCAAGCCACCAAAGGUGGCA [Omei KL Theo A Exc A v2]
3. GGUCGAGUGAUGUUCGAUGUUAUGCAUUCAGAGGAUAUAGGAUUGGCUAGAAGGCUGAAUCGAUCUUCGAGUGAUGUUCGAGGAU [Same State FMN A GF 8]

Data returned:
[0.315, 0.133, 0.117]

Hi, could you look up apparent KD of K4 kissing-loop reporter for each item in my list?
1. UGUCAUUGGUCGGCCGCCACUAGACGGACAUAAAGUCUGUCAUAAAGAGUGAUGUUCUUAAAUAAUAGGACCGGGACCGAUGACU [TrypBS 29 #SwitchBubble #StaticStem]
2. GGAGGAGAGGGAAGGAGCGUGAAAGAGAAAGAAUAUAGUGAUGUUAUAUAGAAGAAAGAAUCACAGGUAGGUCGCCCGGAGGAGG [SSArgB.A]

Data returned:
1. 0.872
2. 0.684

Kindly give each listed record's apparent KD of K4 kissing-loop reporter.
1. AACGCUGUGAAUAACACAGCGAAUAAUUCGCGAGGACCGGUACGGCCGCCACUCGCUAACUGCGAGUGAUGUUCGAUAAUAAAAU [Mat - Mod of OpenEnded 3 - D12]
2. GGAGCUACCUGGGAUACCAGUCGGAGUCUCAGAGCUCGGAGUGAUGUUCUGGGAUGUUUCGGCCCUUGGCAGCUCUGGGACUCCU [#2 Exclusion - Theophylline B Attempt #18 (HarryS)]
3. GUUUUAUAGGAGGAUACCAGUACAAAUAAAGUGCAUUAAUAGUAGAGUGAUGUUCUAAAGUACCCUUGGCAGCUUAGUUUAAGUU [#26 K4 Theophylline B Exclusion]

Data returned:
1. 0.177
2. 0.864
3. 0.185
